System: NCI-H23 lung
experimental protocol: NCI tumour cell line growth inhibition, 48 h
readout: TGI

Consider the worked cases shown below.
{"smiles record": "CCOC(=O)c1noc2c1CCc1c-2cn(Cc2ccc(OC)cc2)c1-c1cc(OC)c(OC)c(OC)c1", "readout": "TGI", "val": "> 100 µM"}
{"smiles record": "Cc1nc2ccc(F)cc2c2c1CCS2", "readout": "TGI", "val": "> 100 µM"}
{"smiles record": "CN1CCN(Cn2nc(COc3ccccc3Cl)n(/N=C/c3ccc(-c4ccc(Cl)cc4Cl)o3)c2=S)CC1", "readout": "TGI", "val": "44.8 µM"}
{"smiles record": "CCN(CC)CC(=O)NC1c2ccccc2Oc2ccccc21", "readout": "TGI", "val": "> 100 µM"}

Which TGI is reported for this compound? O=C(CNc1ccccc1[N+](=O)[O-])Nn1cnc2ccc(S(=O)(=O)Nc3ccccc3[N+](=O)[O-])cc2c1=O
> 100 µM

====

Tested on: T-47D breast
experimental protocol: NCI tumour cell line growth inhibition, 48 h
The compounds listed here are annotated with their TGI.

{"compound": "NS(=O)(=O)c1ccc(N(/C=C/C(=O)C(F)(F)F)CC(=O)c2ccc(F)cc2)cc1", "TGI": "> 100 µM"}
{"compound": "O=C1Cc2c(-c3cccs3)cc(-c3ccccc3)nc2-c2ccccc2N1", "TGI": "> 100 µM"}
{"compound": "O=[N+]([O-])c1ccc(C2=NCCO2)cc1", "TGI": "> 100 µM"}
{"compound": "Cn1cc(-c2ccc3nc(-c4ccc(CC(=O)Nc5cc(C(C)(C)C)no5)cc4)cnc3c2)cn1", "TGI": "> 3 µM"}

Next item in the queue.
Need TGI of CC(NCc1c(O)ccc2c(-c3ccccc3)cc(=O)oc12)C(=O)O (stereo not given) , thanks.
> 100 µM

====

Test system: SK-MEL-28 melanoma
experimental protocol: NCI tumour cell line growth inhibition, 48 h
readout: TGI

{"molecule": "CC(C)(C)[Si](C)(C)OCC1OC(n2cnc3c(N)ncnc32)C2OC(=S)OC12 (stereo unspecified)", "TGI": "> 100 µM"}
{"molecule": "O=C(NCc1cn(Cc2cccc(Oc3ccccc3)c2)nn1)c1cccnc1Nc1ccc(F)cc1", "TGI": "> 100 µM"}
{"molecule": "CNC(=O)Oc1cc(C(C)C)ccc1Sc1ccc(C(C)C)cc1OC(=O)NC", "TGI": "17.9 µM"}
{"molecule": "CC1=C(CCCOC(=O)[C@H](N)CC(C)C)C2=C(C)C3(CC3)[C@@](C)(O)C(=O)C2=C1", "TGI": "5.51 µM"}
{"molecule": "O=C(O)C(Cc1cc(I)c(O)c(I)c1)C1CCCCC1 (stereo unspecified)", "TGI": "> 100 µM"}
{"molecule": "C/C(=N/NC(=O)c1ccncc1)C(F)(F)F", "TGI": "> 100 µM"}

# lookup: TGI of O=C(O)/C=C\C(=O)Nc1ccc2c(c1)-c1ccccc1C2
> 100 µM

I have this molecule here, Cn1cc(C2=C(c3ccsc3)C(=O)NC2=O)c2ccccc21 , and I need its recorded TGI.
> 25 µM

For the molecule shown here, CN(C)c1cccc(-c2cc(=S)c3cc4c(cc3[nH]2)OCO4)c1 , give the reported TGI.
> 100 µM

Would you kindly share the measured TGI for CCN(Cc1ccc(OC)cc1)c1ccc(CO)c(Cl)c1 ?
36.6 µM

So what does the record say about TGI for C=C(CO)C(=O)OC1CC(=C)C2CC(O)C(C)C2C2OC(=O)C(=C)C12 (stereo unspecified) ?
57.6 µM

Looking for the measured TGI of CC(=O)CCC#Cc1ccccc1C(=O)C(C)=[N+]=[N-] , can you help?
> 100 µM

# TGI lookup, item COc1ccc(C2=NN(C(N)=S)C(c3ccc4c(c3)OCO4)C2)cc1 (stereo unspecified)
> 100 µM

Please look up its TGI: CCC(=C(c1ccc(OCCN2CCCCC2)cc1)c1ccc(OCCN2CCCCC2)cc1)c1ccc(Cl)cc1
5.26 µM

Could you tell me which TGI is on file for CC1=C(O)C(=O)C=C2C1=CC=C1[C@@]2(C)CC[C@@]2(C)C3C[C@@H](C)C(=O)[C@@H](O)[C@]3(C)CC[C@]12C (stereo partly specified) ?
4.17 µM

Bench note: what TGI did CC(C)(C)C(=O)/C=C(\OB(F)F)C(C)(C)C show?
> 100 µM

Returns the measured TGI for the input molecule. Input: NC(N)NCCCc1cn2c(n1)C1CCCN1C(=O)C2Cc1ccccc1 (stereo unspecified)
> 100 µM

Given CC(C)(CN1CCCCC1)C(=O)/C=C/c1ccccc1 , state its recorded TGI.
33 µM

I am curious: what TGI value has been reported for CN(C)CC1CC/C(=C\c2ccc(Cl)c(Cl)c2)C1=O (stereo unspecified) ?
> 84.8 µM

If you can, please state the reported TGI value of NC(N)=N/N=C\c1c(-c2cccc([N+](=O)[O-])c2)nc2sccn12 .
4.37 µM

Need TGI, item CC(=O)OCC1C(=O)OCC1C(=O)N1Cc2cc3ccccc3nc2C1 (stereo unspecified)
7.07 µM

Requested read-out: TGI. Entry: O=C([CH-]C(=O)c1ccccc1)c1ccccc1.O=C([CH-]C(=O)c1ccccc1)c1ccccc1.O=C([CH-]C(=O)c1ccccc1)c1ccccc1.[Ga+3]
> 100 µM

Report TGI for Cn1cc(-c2ccc3nc(-c4ccc(CC(=O)Nc5cc(C(C)(C)C)no5)cc4)cnc3c2)cn1 please.
> 3 µM

Fill in: TGI of Cn1cc(C2NC(=O)c3ccccc3N2)c2ccccc21 (stereo unspecified) is ___
> 100 µM

So what's the measured TGI for this one? COC(=O)[C@@H](C)C[C@H](Cc1ccccc1)NC(=O)c1nc([C@@H](C[C@H](C(C)C)N(C)C(=O)[C@@H](NC(=O)[C@H]2C[C@H](O)CCN2C)C(C)C)OC(C)=O)sc1C(C)C
> 11.1 µM

Find the recorded TGI belonging to O=P1(NCCCl)OCCCN1CCCl (stereo unspecified) and report it.
439 µM

Reported TGI for CC(C)=CCC[C@@H](C)[C@H]1CC[C@@]2(C)[C@@H]3CC[C@H]4C(C)(C)[C@@H](O)CC[C@@]45C[C@@]35CC[C@]12C : what is it?
> 100 µM

Entry O=C1c2ccccc2-c2nnc3c(c21)Cc1ccccc1C3 : reported TGI = ?
> 10 µM

The measured values listed here are drawn from PubChem BioAssay (NCI).
